- assay.target: Recombinant human renin (Homo sapiens)
- assay.info: In vitro renin inhibitory activity assay (fluorescence, EDANS/DABCYL peptide substrate)
- reported.conditions: recombinant human renin (50 ng), 0.1M HEPES buffer pH 7.4, substrate 4 μM, 37° C., one hour, fluorescence 340/500 nm
pIC50: −log10 of the molar value. Where a name gives a salt, the structure may show the parent alone.
Classification field: yes (1) = pIC50 at or over 8; no (0) = pIC50 under 8.

Some solved cases for reference:
INSERT INTO assay_data (molecule, label_class) VALUES
  ('COC(=O)NCCN1C(=O)[C@](C)(c2cc(F)cc(F)c2)Oc2cc(Br)c(C(=O)N(C(C)C)[C@@H]3CCCNC3)cc21', 'yes (1)'),
  ('COCCCCN1C(=O)C(C2CCOCC2)Oc2cc(C(F)(F)F)c(C(=O)N(C(C)C)C3CCCNC3)cc21 (centres unmarked)', 'no (0)'),
  ('CCC(=O)NCCN1C(=O)C(C)(C)c2cc(Cl)c(C(=O)N(C(C)C)[C@@H]3CCCNC3)cc21 [Example 255, hydrochloride]', 'no (0)'),
  ('CCC(=O)NCCN1C(=O)C(C)(C)Oc2cc(C(F)(F)F)c(C(=O)N(C3CCC3)[C@@H]3CCCNC3)cc21', 'yes (1)'),
  ('COCCCCN1C(=O)[C@@H](C)Oc2cc(C(F)(F)F)c(C(=O)N(C(C)C)[C@@H]3CCCNC3)cc21', 'yes (1)'),
  ('COC(=O)NCCN1C(=O)[C@](C)(c2cc(F)cc(F)c2)Oc2cc(Cl)c(C(=O)N(C(C)C)[C@@H]3CCCNC3)cc21', 'yes (1)');

(Q) Threshold query (pIC50 >= 8) on COCC(O)CCN1C(=O)C(C)(C)Oc2cc(C(F)(F)F)c(C(=O)N(C(C)C)C3CCCNC3)cc21 (centres unmarked)
(A) no (0)

(Q) Threshold query (pIC50 >= 8) on COC(=O)NCCN1C(=O)C(C)(COc2cccc(OC)c2)Oc2cc(C(F)(F)F)c(C(=O)N(C(C)C)C3CCCNC3)cc21 (centres unmarked)
(A) yes (1)

(Q) Threshold query (pIC50 >= 8) on COCCCCN1C(=O)C(C)(C)Oc2cc(C#N)c(C(=O)N(C(C)C)[C@@H]3CCCNC3)cc21
(A) yes (1)

(Q) Threshold query (pIC50 >= 8) on CCC(=O)NCCN1C(=O)C(C)(c2cc(C#N)ccc2F)Oc2cc(C(F)(F)F)c(C(=O)N(C(C)C)C3CCCNC3)cc21 (centres unmarked)
(A) yes (1)

(Q) Threshold query (pIC50 >= 8) on COCCCN1C(=O)C(C)(C)Oc2cc(Br)c(C(=O)N(C(C)C)[C@@H]3CCCNC3)cc21 [Example 1, hydrochloride]
(A) yes (1)

(Q) Threshold query (pIC50 >= 8) on COCCCCN1C(=O)C(C)(C)Oc2cc(C(F)(F)F)c(C(=O)N(C(C)C)C3CCNC3)cc21 (centres unmarked) [Example 201, hydrochloride]
(A) no (0)

* * *

- assay.target: Recombinant human renin (Homo sapiens, UniProt P00797)
- Sequence (P00797 67-406): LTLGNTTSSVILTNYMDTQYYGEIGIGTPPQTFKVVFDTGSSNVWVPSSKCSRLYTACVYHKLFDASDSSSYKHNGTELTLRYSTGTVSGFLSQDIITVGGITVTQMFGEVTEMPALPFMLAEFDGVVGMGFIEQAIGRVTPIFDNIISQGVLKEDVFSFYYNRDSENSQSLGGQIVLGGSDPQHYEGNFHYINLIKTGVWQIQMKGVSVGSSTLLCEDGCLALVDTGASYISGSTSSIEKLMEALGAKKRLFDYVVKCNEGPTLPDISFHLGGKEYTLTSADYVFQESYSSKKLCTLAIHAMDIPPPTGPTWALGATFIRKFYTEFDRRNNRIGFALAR
- assay.info: In vitro renin inhibitory activity assay (fluorescence, EDANS/DABCYL peptide substrate)
- reported.conditions: recombinant human renin (50 ng), 0.1M HEPES buffer pH 7.4, substrate 4 μM, 37° C., one hour, fluorescence 340/500 nm
- Description: In Vitro Renin Inhibitory Activity Assay Recombinant human renin (50 ng) was reacted in 0.1M HEPES buffer (pH 7.4) containing 0.1M NaCl, 1 mM EDTA and 0.1 mg/mL BSA together with a substrate and a test compound at 37° C. for one hour. […] The elevated fluorescence intensity at the exciting wavelength 340 nm and the fluorescence wavelength 500 nm was measured by a fluorescence plate reader.
value.kind: pIC50
# reply with the number alone; pIC50 is -log10 of concentration in mol/L

See these solved cases before continuing.
INSERT INTO assay_data (compound, value_kind, meas_value) VALUES
  ('COCC(=O)CCN1C(=O)C(C)(C)Oc2cc(C(F)(F)F)c(C(=O)N(C(C)C)C3CCCNC3)cc21 (stereo not drawn) [Example 252]', 'pIC50', 8.82),
  ('COCCCCN1C(=O)C2(CCOCC2)Oc2cc(C)c(C(=O)N(C(C)C)[C@@H]3CCCNC3)cc21 [Example 48]', 'pIC50', 8.08),
  ('CCC(=O)NCCN1C(=O)C(C)(C)Oc2cc(C(F)(F)F)c(C(=O)N(CC)C3CNCCC3c3ccccc3)cc21 (stereo not drawn) [Example 243]', 'pIC50', 8.66),
  ('CCc1cc2c(cc1C(=O)N(C(C)C)[C@@H]1CCCNC1)N(CCCCOC)C(=O)C(C)(C)O2 [Example 79]', 'pIC50', 7.72),
  ('CCC(=O)NCCN1C(=O)C(C)(c2cccc(C#N)c2)Oc2cc(C(F)(F)F)c(C(=O)N(C(C)C)C3CCCNC3)cc21 (stereo not drawn) [Example 224]', 'pIC50', 9.22),
  ('COCCCCN1C(=O)C(C)(CO)Oc2cc(C(F)(F)F)c(C(=O)N(C(C)C)C3CCCNC3)cc21 (stereo not drawn) [Example 217]', 'pIC50', 8.74);

Per the record, COCCCCN1C(=O)C(C)(COCCOC)Oc2cc(C(F)(F)F)c(C(=O)N(C(C)C)C3CCCNC3)cc21 (stereo not drawn) [Example 212] has pIC50 of 8.77

Per the record, CCc1cc2c(cc1C(=O)N(C(C)C)[C@@H]1CCCNC1)N(CCNC(=O)OC)C(=O)C(C)(C)O2 [Example 80] has pIC50 of 8.34

Per the record, CCC(=O)NCCN1C(=O)C(C)(c2cccc(OS(C)(=O)=O)c2)Oc2cc(C(F)(F)F)c(C(=O)N(C(C)C)C3CCCNC3)cc21 (stereo not drawn) [Example 229] has pIC50 of 9.52

Per the record, CCOC(=O)COCC1(C)Oc2cc(C(F)(F)F)c(C(=O)N(C(C)C)C3CCCNC3)cc2N(CCCCOC)C1=O (stereo not drawn) [Example 216] has pIC50 of 8.96

Per the record, CCC(=O)NCCn1c(=O)n(CC)c2cc(C(F)(F)F)c(C(=O)N(C(C)C)[C@@H]3CCCNC3)cc21 [Example 262] has pIC50 of 7.52

Per the record, COC(=O)NCCN1C(=O)C(C)(COc2ccccc2)Oc2cc(C(F)(F)F)c(C(=O)N(C(C)C)C3CCCNC3)cc21 (stereo not drawn) [Example 209] has pIC50 of 8.70

Per the record, CCC(=O)NCCN1C(=O)C(C)(C)Oc2cc(C(F)(F)F)c(C(=O)N(C(C)C)C3CNCCC3c3cccc(-c4ccccc4)c3)cc21 (stereo not drawn) [Example 238] has pIC50 of 7.41

Per the record, CCC(=O)NCCN1C(=O)C(C)(C)Oc2cc(F)c(C(=O)N(CC)[C@H]3CNCC[C@@H]3c3cccc(OC)c3)cc21 [Example 265] has pIC50 of 8.66

Per the record, COCCCN1C(=O)[C@@H](C)Oc2cc(C)c(C(=O)N(C(C)C)[C@@H]3CCCNC3)cc21 [Example 18] has pIC50 of 7.96
